# Test system: giant foxtail (Setaria faberii)
# PROTOCOL SUMMARY: Test A postemergence
# Format: in vivo
# TEST CONDITIONS: Setaria faberi, post-emergence, 240 h, 125 g ai/ha, Postemergence; visual injury after approximately 10 d; 0 to 100 scale where 0 is no effect and 100 is complete control; read-out: Plant response rating, Foxtail, Giant
Measured pest or weed control at 125 g/ha of individual entries
Response body: numeric value in %, unit text excluded.

Which pest or weed control at 125 g/ha value belongs to O=C1NC[C@H](c2cc(C(F)(F)F)cs2)[C@H]1C(=O)Nc1cccc(F)c1F ? 30

Which pest or weed control at 125 g/ha value belongs to CON1CC[C@H](c2ccc(F)cc2)[C@@H](C(=O)Nc2cccc(F)c2F)C1=O ? 0

Which pest or weed control at 125 g/ha value belongs to CN1C[C@H](c2ccc(C(F)(F)F)cc2)[C@@H](C(=O)Nc2ccc(F)cc2C(F)(F)F)C1=O ? 80

Which pest or weed control at 125 g/ha value belongs to Cc1cc(F)ccc1NC(=O)[C@H]1C(=O)N(C)C[C@@H]1c1ccc(C(F)(F)F)cc1 ? 90

Which pest or weed control at 125 g/ha value belongs to Cc1cc([C@H]2CN(C)C(=O)[C@@H]2C(=O)Nc2ccccc2F)cc(C)c1Br ? 70

Which pest or weed control at 125 g/ha value belongs to CN1C[C@H](c2ccc(C(F)(F)F)cc2)[C@@H](C(=O)Nc2ccccc2Br)C1=O ? 90

Which pest or weed control at 125 g/ha value belongs to Cc1cccc(NC(=O)[C@H]2C(=O)N(C)C[C@@H]2c2ccc(C(F)(F)F)cc2)c1C ? 60

Which pest or weed control at 125 g/ha value belongs to CN1C[C@H](c2csc(C(F)(F)F)c2)[C@@H](C(=O)Nc2ccccc2F)C1=O ? 90
